meta.source: patent US20140294898A1

Molecular target: T1, hPDL1(19-239)-TVMV-His (human, UniProt Q9NZQ7 19-239)
T1 construct: The text says amino acids 18-239, the construct name says 19-239; Expressed in HEK293T cells; Used at 10 nM final in the HTRF assay; also called PD-L1-His; PD-L1-TVMV-His
T1 sequence (Q9NZQ7 other isoform, or with tags, fused parts or gaps limits assumed): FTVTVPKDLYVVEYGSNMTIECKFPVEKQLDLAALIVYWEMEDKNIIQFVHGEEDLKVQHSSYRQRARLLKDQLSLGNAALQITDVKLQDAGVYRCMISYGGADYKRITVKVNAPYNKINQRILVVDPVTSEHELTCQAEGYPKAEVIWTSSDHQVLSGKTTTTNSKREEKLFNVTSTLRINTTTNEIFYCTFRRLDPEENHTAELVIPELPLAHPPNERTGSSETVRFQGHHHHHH
Assay: HTRF competition, PD-1-Ig binding to PD-L1-His
Positions of bridges follow the written chain, without caps; N, C: chain ends. Non-standard residues stand in square brackets, D forms with d. Phe(4-Br) = N[C@@H](Cc1ccc(Br)cc1)C(=O)O; 4Pal = N[C@@H](Cc1ccncc1)C(=O)O; NMeNle = CCCC[C@H](NC)C(=O)O; NMeA = CN[C@@H](C)C(=O)O; Sar = CNCC(=O)O
quantity.kind: IC50

Value of IC50 reported for the binder {CH2CO}-[Phe(4-Br)][NMeA]NPHL[Sar]WSW[NMeNle][NMeNle]RCG-NH2 (thioether N-14; SMILES CCCC[C@H]1C(=O)N(C)[C@@H](CCCC)C(=O)N[C@@H](CCCNC(=N)N)C(=O)N[C@H](C(=O)NCC(N)=O)CSCC(=O)N[C@@H](Cc2ccc(Br)cc2)C(=O)N(C)[C@@H](C)C(=O)N[C@@H](CC(N)=O)C(=O)N2CCC[C@H]2C(=O)N[C@@H](Cc2c[nH]cn2)C(=O)N[C@@H](CC(C)C)C(=O)N(C)CC(=O)N[C@@H](Cc2c[nH]c3ccccc23)C(=O)N[C@@H](CO)C(=O)N[C@@H](Cc2c[nH]c3ccccc23)C(=O)N1C) [Compound No. 34] is 4 nM

For this binder ( {CH2CO}-F[Sar]NPHL[Sar]WSW[NMeNle][NMeNle]RCG-NH2 (thioether N-14; SMILES CCCC[C@H]1C(=O)N(C)[C@@H](CCCC)C(=O)N[C@@H](CCCNC(=N)N)C(=O)N[C@H](C(=O)NCC(N)=O)CSCC(=O)N[C@@H](Cc2ccccc2)C(=O)N(C)CC(=O)N[C@@H](CC(N)=O)C(=O)N2CCC[C@H]2C(=O)N[C@@H](Cc2c[nH]cn2)C(=O)N[C@@H](CC(C)C)C(=O)N(C)CC(=O)N[C@@H](Cc2c[nH]c3ccccc23)C(=O)N[C@@H](CO)C(=O)N[C@@H](Cc2c[nH]c3ccccc23)C(=O)N1C) [Compound No. 7] ), measured IC50 is 55 nM

Form field IC50, entry {CH2CO}-[4Pal][NMeA]NPHL[Sar]WSW[NMeNle][NMeNle]RCG-NH2 (thioether N-14; SMILES CCCC[C@H]1C(=O)N(C)[C@@H](CCCC)C(=O)N[C@@H](CCCNC(=N)N)C(=O)N[C@H](C(=O)NCC(N)=O)CSCC(=O)N[C@@H](Cc2ccncc2)C(=O)N(C)[C@@H](C)C(=O)N[C@@H](CC(N)=O)C(=O)N2CCC[C@H]2C(=O)N[C@@H](Cc2c[nH]cn2)C(=O)N[C@@H](CC(C)C)C(=O)N(C)CC(=O)N[C@@H](Cc2c[nH]c3ccccc23)C(=O)N[C@@H](CO)C(=O)N[C@@H](Cc2c[nH]c3ccccc23)C(=O)N1C) [Compound No. 39] : 33 nM

Reported IC50 ( {CH2CO}-Y[NMeA]NPHL[Sar]WSW[NMeNle][NMeNle]RCG-NH2 (thioether N-14; SMILES CCCC[C@H]1C(=O)N(C)[C@@H](CCCC)C(=O)N[C@@H](CCCNC(=N)N)C(=O)N[C@H](C(=O)NCC(N)=O)CSCC(=O)N[C@@H](Cc2ccc(O)cc2)C(=O)N(C)[C@@H](C)C(=O)N[C@@H](CC(N)=O)C(=O)N2CCC[C@H]2C(=O)N[C@@H](Cc2c[nH]cn2)C(=O)N[C@@H](CC(C)C)C(=O)N(C)CC(=O)N[C@@H](Cc2c[nH]c3ccccc23)C(=O)N[C@@H](CO)C(=O)N[C@@H](Cc2c[nH]c3ccccc23)C(=O)N1C) [Compound No. 30] ) = 5 nM
